Data origin, for the record: patent US20210040184A1

Overview of reported koff across a group of binders:
Biological target: Clade C DU172.17 gp120 protein (HIV-1 Clade C, DU172.17)
Assay: BLI (Octet), IgG on anti-hIgG Fc sensor, gp120 analyte, 1:1 fit

[
  {
    "binder": "Germ6 (antibody, V domains shown) VH: ADLVQSGAVVKKPGDSVRVSCEAQGYRFPDYIIHWIRRAPGQGPEWMGWMNPMGGQVNIPWKFQGRVSMTRDTSIETAYLDLRGLKSDDTAVYYCVRDRSNGSGKRFESSNWFLDLWGRGTAVTVQS VL: QSALTQPRSVSGSPGQSVTISCTGTHNLVSWCQHQPGRAPKLLIYDFNKRPSGVPDRFSGSGSGGTASLTISGLQDEDDAEYFCWAYEAFGGGTKLTVL",
    "koff / s⁻¹": 0.000466
  },
  {
    "binder": "CysCV (antibody, V domains shown) VH: ADLVQSGAVVKKPGDSVRISCEAQGYRFPDYIIHWIRRAPGQGPEWMGWMNPMGGQVNIPWKFQGRVSMTRDTSIETAFLDLRGLKSDDTAVYYCVRDRSNGSGKRFESSNWFLDLWGRGTAVTIQS VL: QSALTQPRSVSASPGQSVTISCTGTHNLVSWVQHQPGRAPKLLIYDFNKRPSGVPDRFSGSGSGGTASLTITGLQDDDDAEYFCWAYEAFGGGTKLTVL",
    "koff / s⁻¹": 0.000495
  },
  {
    "binder": "Germ18 (antibody, V domains shown) VH: QVQLVQSGAEVKKPGASVKVSCEASGYRFPDYIIHWIRRAPGQGPEWMGWMNPMGGQVNIPWKFQGRVSMTRDTSIETAYMELRGLRSDDTAVYYCVRDRSNGSGKRFESSNWFLDLWGRGTLVTVSS VL: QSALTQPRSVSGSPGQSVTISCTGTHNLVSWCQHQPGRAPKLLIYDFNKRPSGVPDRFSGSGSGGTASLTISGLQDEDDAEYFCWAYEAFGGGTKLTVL",
    "koff / s⁻¹": 0.000415
  },
  {
    "binder": "CysCA (antibody, V domains shown) VH: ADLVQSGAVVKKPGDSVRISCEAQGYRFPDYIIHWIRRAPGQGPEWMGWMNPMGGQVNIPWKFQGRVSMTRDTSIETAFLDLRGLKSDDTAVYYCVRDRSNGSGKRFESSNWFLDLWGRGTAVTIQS VL: QSALTQPRSVSASPGQSVTISCTGTHNLVSWAQHQPGRAPKLLIYDFNKRPSGVPDRFSGSGSGGTASLTITGLQDDDDAEYFCWAYEAFGGGTKLTVL",
    "koff / s⁻¹": 0.000446
  }
]
